Data provenance: ChEMBL document CHEMBL5356956

target: Cannabinoid receptor 1 (Homo sapiens, UniProt P21554); test: Inverse agonist activity at human CB1 receptor expressed in African green monkey COS7 cells co-expressing G-protein in presence of CP55940 by IP3 assay; type: functional, cell membranes, Membrane
Sequence (P21554 whole entry): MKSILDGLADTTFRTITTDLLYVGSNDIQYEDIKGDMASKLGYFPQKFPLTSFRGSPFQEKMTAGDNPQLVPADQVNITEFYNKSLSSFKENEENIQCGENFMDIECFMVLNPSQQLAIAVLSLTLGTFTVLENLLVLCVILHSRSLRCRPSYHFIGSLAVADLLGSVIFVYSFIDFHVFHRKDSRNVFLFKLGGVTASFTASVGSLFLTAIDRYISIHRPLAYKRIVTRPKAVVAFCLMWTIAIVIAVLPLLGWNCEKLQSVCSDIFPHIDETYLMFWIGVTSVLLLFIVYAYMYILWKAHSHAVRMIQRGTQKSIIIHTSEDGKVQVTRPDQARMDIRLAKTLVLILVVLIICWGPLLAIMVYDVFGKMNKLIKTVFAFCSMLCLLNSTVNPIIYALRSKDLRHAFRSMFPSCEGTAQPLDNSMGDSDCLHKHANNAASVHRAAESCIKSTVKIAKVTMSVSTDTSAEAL
Rule for this label: Met means IC50 is less than 40 nM; Not met means IC50 is at least 40 nM.

>  <Line notation>
O=C(c1nn(-c2ccccc2Cl)c(-c2ccc(Cl)cc2)c1Cc1nn[nH]n1)N1CCC(Oc2ccc(C(F)(F)F)cc2)CC1

>  <Answer label>
Met

$$$$
>  <Line notation>
O=C(c1nn(-c2ccccc2Cl)c(-c2ccc(Cl)cc2)c1Cc1nn[nH]n1)N1CCC(Oc2ccc(OC(F)(F)F)cc2)CC1

>  <Answer label>
Met

$$$$

Does the reported IC50 of the following compound sit strictly below 40 nM? C[C@@H](NC(=O)c1nn(-c2ccccc2Cl)c(-c2ccc(Cl)cc2)c1Cc1nnn[nH]1)c1cccc(F)c1 Not met

Bench note: check whether O=C(c1nn(-c2ccccc2Cl)c(-c2ccc(Cl)cc2)c1Cc1nn[nH]n1)N1CCC(Oc2cccc(Cl)c2)CC1 shows IC50 below 40 nM Met

IC50 strictly < 40 nM for this compound? O=C(c1nn(-c2ccccc2Cl)c(-c2ccc(Cl)cc2)c1Cc1nn[nH]n1)N1CCC(Oc2cccc(F)c2F)CC1 Not met

Lab log: compare recorded IC50 with 40 nM; is it strictly lower for O=C(c1nn(-c2ccccc2Cl)c(-c2ccc(Cl)cc2)c1Cc1nn[nH]n1)N1CCC(Oc2cc(F)cc(F)c2)CC1 ? Met

====

experiment: AUC (infinity) in NMRI mouse at 2 mg/kg, iv; format: ADME, organism-based; design: dose 2 mg/kg, route iv; conditions: in vivo
Measured property: AUC(0-inf) (µM·h)
Your answer should be a plain number; it is taken to be in µM·h.

Please look up its AUC(0-inf): C[C@@H](NC(=O)c1nn(-c2ccccc2Cl)c(-c2ccc(Cl)cc2)c1Cc1nn[nH]n1)c1ccc(C(F)(F)F)cc1 22

====

target: Voltage-gated inwardly rectifying potassium channel KCNH2 (Homo sapiens); assay: Inhibition of hERG by patch clamp assay
Measured property: pIC50
# pIC50: negative log10 of molar concentration; output just the value

Value wanted: pIC50 (Voltage-gated inwardly rectifying potassium channel KCNH2 (Homo sapiens)) of entry NC(=O)Cc1c(C(=O)N2CCC(O)(c3ccc(F)cc3)CC2)nn(-c2ccccc2Cl)c1-c1ccc(Cl)cc1 6.10

====

assay: Lipophilicity, logD of compound by chromatographic analysis; assay type: physicochemical
# satisfied = chromatographic logD below 3 (exclusive); not satisfied = chromatographic logD at/above 3

// below: answered compounds
>  <Line notation>
O=C(O)Cc1c(C(=O)N2CCC(Oc3ccc(C(F)(F)F)cc3)CC2)nn(-c2ccccc2Cl)c1-c1ccc(Cl)cc1

>  <Answer label>
not satisfied

$$$$
>  <Line notation>
NC(=O)Cc1c(C(=O)N2CCC(O)(c3ccccc3F)CC2)nn(-c2ccccc2Cl)c1-c1ccc(Cl)cc1

>  <Answer label>
satisfied

$$$$
>  <Line notation>
CS(=O)(=O)N1CCC(NC(=O)c2nn(-c3ccccc3Cl)c(-c3ccc(Cl)cc3)c2CC(N)=O)CC1

>  <Answer label>
satisfied

$$$$
>  <Line notation>
O=C(O)Cc1c(C(=O)N2CCC(Oc3cccc(F)c3)CC2)nn(-c2ccccc2Cl)c1-c1ccc(Cl)cc1

>  <Answer label>
not satisfied

$$$$
>  <Line notation>
CC(C)S(=O)(=O)N1CCC(NC(=O)c2nn(-c3ccccc3Cl)c(-c3ccc(Cl)cc3)c2CC(N)=O)CC1

>  <Answer label>
satisfied

$$$$
>  <Line notation>
NC(=O)Cc1c(C(=O)N2CCC(O)(c3cccc(F)c3)CC2)nn(-c2ccccc2Cl)c1-c1ccc(Cl)cc1

>  <Answer label>
satisfied

$$$$

Report whether reported chromatographic logD is lower than 3 (strictly) for O=C(O)Cc1c(C(=O)N2CCC(Oc3ccc(Cl)cc3)CC2)nn(-c2ccccc2Cl)c1-c1ccc(Cl)cc1 satisfied

Lab note: confirm whether the reported chromatographic logD for this compound is below 3, equality not counting. compound: O=C(O)Cc1c(C(=O)N2CCC(Oc3ccc(Cl)cc3F)CC2)nn(-c2ccccc2Cl)c1-c1ccc(Cl)cc1 not satisfied

Answer whether the compound O=C(c1nn(-c2ccccc2Cl)c(-c2ccc(Cl)cc2)c1Cc1nn[nH]n1)N1CCC(Oc2ccc(C(F)(F)F)cc2)CC1 has chromatographic logD strictly less than 3 satisfied

Is chromatographic logD of O=C(c1nn(-c2ccccc2Cl)c(-c2ccc(Cl)cc2)c1Cc1nn[nH]n1)N1CCC(Oc2cccc(Cl)c2)CC1 strictly below 3? satisfied

A record lists C[C@@H](NC(=O)c1nn(-c2ccccc2Cl)c(-c2ccc(Cl)cc2)c1Cc1nn[nH]n1)c1ccc(OC(F)(F)F)cc1 . Is its chromatographic logD below 3? satisfied

Given the entry O=C(O)Cc1c(C(=O)N2CCC(Oc3cccc(F)c3F)CC2)nn(-c2ccccc2Cl)c1-c1ccc(Cl)cc1 , would its reported chromatographic logD be below 3? satisfied

Dear reviewer, please state whether O=C(O)Cc1c(C(=O)N2CCC(c3cccc(F)c3)CC2)nn(-c2ccccc2Cl)c1-c1ccc(Cl)cc1 has chromatographic logD strictly beneath 3. satisfied

For C[C@@H](NC(=O)c1nn(-c2ccccc2Cl)c(-c2ccc(Cl)cc2)c1Cc1nnn[nH]1)c1cccc(F)c1 , is the recorded chromatographic logD below the cut-off of 3? satisfied

Please indicate whether the reported chromatographic logD of O=C(O)Cc1c(C(=O)N2CCC(Oc3cc(F)cc(F)c3)CC2)nn(-c2ccccc2Cl)c1-c1ccc(Cl)cc1 is strictly below 3. not satisfied

====

experiment: Solubility of compound; assay type: physicochemical
solubility of 100 µM or higher: Yes. Under 100 µM: No.

>  <Line notation>
O=C(O)Cc1c(C(=O)N2CCC(Oc3cccc(C(F)(F)F)c3)CC2)nn(-c2ccccc2Cl)c1-c1ccc(Cl)cc1

>  <Answer label>
Yes

$$$$
>  <Line notation>
C[C@@H]1C[C@](O)(c2cccc(F)c2)CCN1C(=O)c1nn(-c2ccccc2Cl)c(-c2ccc(Cl)cc2)c1CC(N)=O

>  <Answer label>
No

$$$$
>  <Line notation>
O=C(O)Cc1c(C(=O)N2CCC(Oc3ccc(Cl)cc3F)CC2)nn(-c2ccccc2Cl)c1-c1ccc(Cl)cc1

>  <Answer label>
No

$$$$
>  <Line notation>
O=C(O)Cc1c(C(=O)N2CCC(Oc3cccc(F)c3F)CC2)nn(-c2ccccc2Cl)c1-c1ccc(Cl)cc1

>  <Answer label>
Yes

$$$$
>  <Line notation>
O=C(c1nn(-c2ccccc2Cl)c(-c2ccc(Cl)cc2)c1Cc1nn[nH]n1)N1CCC(Oc2ccc(OC(F)(F)F)cc2)CC1

>  <Answer label>
Yes

$$$$

Quick check, solubility >= 100 µM? CS(=O)(=O)N1CCC(NC(=O)c2nn(-c3ccccc3Cl)c(-c3ccc(Cl)cc3)c2CC(N)=O)CC1 No

hey, is solubility for this one >= 100 µM? CCN1C(=O)OC2(CCN(C(=O)c3nn(-c4ccccc4Cl)c(-c4ccc(Cl)cc4)c3CC(N)=O)CC2)C1=O No

Identify whether the reported solubility of the following compound is 100 µM or greater: O=C(O)Cc1c(C(=O)N2CCC(Oc3ccc(C(F)(F)F)cc3)CC2)nn(-c2ccccc2Cl)c1-c1ccc(Cl)cc1 Yes

====

assay: Clearance in NMRI mouse at 2 mg/kg, iv; type: ADME, organism-based; conditions: in vivo
Measured property: clearance (mL/min/kg)
Note: unit mL/min/kg is implicit; provide only the numeric part.

>  <Line notation>
C[C@@H](NC(=O)c1nn(-c2ccccc2Cl)c(-c2ccc(Cl)cc2)c1Cc1nn[nH]n1)c1ccc(C(F)(F)F)cc1

>  <Units>
mL/min/kg

>  <Readout value>
2.6

$$$$

Consider the additional compound presented here.
Name the reported clearance value associated with the compound O=C(O)Cc1c(C(=O)N2CCC(c3ccccc3F)CC2)nn(-c2ccccc2Cl)c1-c1ccc(Cl)cc1 2.1

====

inhibition at 10 µM by entry:
molecular target: hERG (Homo sapiens, UniProt Q12809); experiment: Inhibition of hERG at 10 uM by patch clamp assay relative to control; type: toxicity
Sequence (Q12809 whole entry): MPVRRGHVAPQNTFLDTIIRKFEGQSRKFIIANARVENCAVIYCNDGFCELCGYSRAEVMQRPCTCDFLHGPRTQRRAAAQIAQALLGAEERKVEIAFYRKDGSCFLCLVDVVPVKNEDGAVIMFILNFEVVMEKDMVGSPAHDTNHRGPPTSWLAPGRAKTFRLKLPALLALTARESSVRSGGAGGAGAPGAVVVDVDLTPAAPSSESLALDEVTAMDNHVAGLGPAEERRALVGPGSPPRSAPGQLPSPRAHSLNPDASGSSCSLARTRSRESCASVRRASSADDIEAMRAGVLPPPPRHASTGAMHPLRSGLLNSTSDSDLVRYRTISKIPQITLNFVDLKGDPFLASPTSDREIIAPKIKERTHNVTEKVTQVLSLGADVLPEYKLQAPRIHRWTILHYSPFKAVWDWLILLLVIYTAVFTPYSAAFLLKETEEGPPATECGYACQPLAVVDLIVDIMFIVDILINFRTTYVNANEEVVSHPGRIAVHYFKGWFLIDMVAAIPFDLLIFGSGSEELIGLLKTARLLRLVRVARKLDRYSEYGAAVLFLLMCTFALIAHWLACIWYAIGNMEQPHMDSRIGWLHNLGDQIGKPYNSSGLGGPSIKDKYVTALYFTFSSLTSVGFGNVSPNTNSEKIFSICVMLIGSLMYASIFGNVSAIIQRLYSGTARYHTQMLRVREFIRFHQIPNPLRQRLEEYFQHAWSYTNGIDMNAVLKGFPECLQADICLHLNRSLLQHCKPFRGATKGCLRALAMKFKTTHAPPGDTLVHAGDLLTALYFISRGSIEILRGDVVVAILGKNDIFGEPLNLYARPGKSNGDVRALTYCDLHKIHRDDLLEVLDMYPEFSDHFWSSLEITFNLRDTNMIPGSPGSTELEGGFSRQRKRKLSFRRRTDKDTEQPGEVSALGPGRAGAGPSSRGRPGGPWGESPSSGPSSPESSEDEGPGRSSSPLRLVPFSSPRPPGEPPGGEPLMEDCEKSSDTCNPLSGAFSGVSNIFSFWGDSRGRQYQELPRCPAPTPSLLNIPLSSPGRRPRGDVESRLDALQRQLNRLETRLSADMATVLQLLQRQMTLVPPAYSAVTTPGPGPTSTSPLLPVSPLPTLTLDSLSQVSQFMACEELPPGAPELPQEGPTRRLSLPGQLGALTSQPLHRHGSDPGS
All answers are understood in %, so give the number only.

Notebook: pull reported inhibition at 10 µM for hERG (Homo sapiens, UniProt Q12809), entry NC(=O)Cc1c(C(=O)NC2CCN(C(=O)C3CC3)CC2)nn(-c2ccccc2Cl)c1-c1ccc(Cl)cc1 24

For the record NC(=O)Cc1c(C(=O)N2CCC(O)(c3ccc(F)cc3)CC2)nn(-c2ccccc2Cl)c1-c1ccc(Cl)cc1 , what value of inhibition at 10 µM is listed for hERG (Homo sapiens, UniProt Q12809)? 93

// fetch hERG (Homo sapiens, UniProt Q12809) inhibition at 10 µM for NC(=O)Cc1c(C(=O)N2CCC(O)(c3ccc(F)cn3)CC2)nn(-c2ccccc2Cl)c1-c1ccc(Cl)cc1 38
